# reported TGI; entries follow
# System: HOP-62 NSCLC
# METHOD: NCI tumour cell line growth inhibition, 48 h

Illustrative cases are given below, each with its answer.
>  <MOLECULE>
Clc1ccc(CSCCc2ccncc2)cc1Cl

>  <TGI>
50.2 µM

$$$$
>  <MOLECULE>
CC1(C)C2CC(=O)C1(C)C(O)C2Br (configuration not stated)

>  <TGI>
> 100 µM

$$$$
>  <MOLECULE>
CC1CC(O)C(=O)C(O[C@@H]2C[C@@H]3CC[C@@H]4[C@H](CC[C@]5(C)C(C6=CC(=O)OC6)CC[C@]45O)[C@@]3(C=O)C[C@H]2O)O1 (some centres not stated)

>  <TGI>
0.0492 µM

$$$$

Name the recorded TGI of the item Cc1[nH]c2ccccc2c1C1Cc2ccccc2N1C(=O)C#Cc1ccc([N+](=O)[O-])cc1 (configuration not stated) in your answer.
> 100 µM

Name the recorded TGI of the item C[C@]12CC[C@@H]3c4ccc(O)cc4CC[C@H]3[C@@H]1C/C(=C\c1ccncc1)[C@@H]2O in your answer.
44.5 µM

Name the recorded TGI of the item C[C@@H](Cl)[C@H]1CCCN(Cc2ccc(Br)cc2)C1 in your answer.
> 12.5 µM

Name the recorded TGI of the item CNc1ncnc2c1cnn2COCC(O)CO (configuration not stated) in your answer.
> 100 µM

Name the recorded TGI of the item Cc1ccc(C)c(N2C/C(=N\NC(=O)CC#N)C(c3nc4ccccc4s3)C(=O)C2=O)c1 (configuration not stated) in your answer.
> 100 µM

Name the recorded TGI of the item Cn1ccnc1C(O)(c1nccn1C)c1nccn1C in your answer.
> 100 µM

Name the recorded TGI of the item Cc1cc(Nc2nc(-c3cn(-c4ccc(Cl)cc4)nn3)nc3ccccc23)n[nH]1 in your answer.
> 50 µM

Name the recorded TGI of the item CCN(CC)CCCCCCNc1cccc2cc(Br)cnc12 in your answer.
23.4 µM

Name the recorded TGI of the item COc1c(O)c2c3c(c(C)cc(O)c3c1O)C(=O)C(O)(C(C)(C)C(C)=O)C2=O (configuration not stated) in your answer.
> 100 µM

Name the recorded TGI of the item C#CCOc1cccc(Nc2ncnc3c(NC(=O)C=C)cccc23)c1 in your answer.
> 100 µM

Name the recorded TGI of the item CCOC(CNCCC(=O)OC)OCC in your answer.
> 10 µM

----------
# reported log10(TGI); entries follow
# Test system: LOX IMVI melanoma
# METHOD: NCI tumour cell line growth inhibition, 48 h
For clarity, the numbers are log10 values of TGI expressed in µM.

Illustrative cases are given below, each with its answer.
>  <SMILES>
C(/C=C(\Nc1ccccc1)C12CC3CC(CC(C3)C1)C2)=Nc1ccccc1

>  <log10(TGI)>
1.46

$$$$
>  <SMILES>
Nc1nc(N)c(N=O)c(Nc2ccc(Br)cc2)n1

>  <log10(TGI)>
1.82

$$$$
>  <SMILES>
Cc1cc(-c2nc3ccccc3s2)ccc1NC(=O)[C@@H](N)CCCCN

>  <log10(TGI)>
0.77

$$$$

Please report log10(TGI) with LOX IMVI melanoma for item CCCCCCCCCCNC(=O)CI .
-0.98

Please report log10(TGI) with LOX IMVI melanoma for item COC(=O)c1cc2c(o1)-c1nccc3c1c(nc1ccccc13)C2=O .
1.21

Please report log10(TGI) with LOX IMVI melanoma for item Cc1ccccc1C1=[N+]([O-])c2ccc(Cl)cc2C1=O .
1.31
